# key: entry, value: kcat/KM
Target: Factor X (FX), P00742
Sequence (P00742 whole entry, looked up): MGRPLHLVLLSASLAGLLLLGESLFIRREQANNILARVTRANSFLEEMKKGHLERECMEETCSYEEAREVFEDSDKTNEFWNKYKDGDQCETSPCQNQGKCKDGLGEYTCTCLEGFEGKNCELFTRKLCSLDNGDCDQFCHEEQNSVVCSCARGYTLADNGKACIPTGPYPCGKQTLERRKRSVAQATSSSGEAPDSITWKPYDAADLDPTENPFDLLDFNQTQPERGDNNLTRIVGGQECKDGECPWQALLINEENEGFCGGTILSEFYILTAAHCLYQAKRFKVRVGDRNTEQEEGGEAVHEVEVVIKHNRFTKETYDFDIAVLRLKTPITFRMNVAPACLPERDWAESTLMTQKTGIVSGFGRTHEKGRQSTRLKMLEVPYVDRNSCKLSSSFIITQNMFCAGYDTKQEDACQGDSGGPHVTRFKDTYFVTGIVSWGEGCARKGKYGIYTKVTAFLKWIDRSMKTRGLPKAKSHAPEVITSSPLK

>  <Protein>
FIXa-Y155F/K247N/N249S/R318Y/T343R/E410N (protein) chain 1: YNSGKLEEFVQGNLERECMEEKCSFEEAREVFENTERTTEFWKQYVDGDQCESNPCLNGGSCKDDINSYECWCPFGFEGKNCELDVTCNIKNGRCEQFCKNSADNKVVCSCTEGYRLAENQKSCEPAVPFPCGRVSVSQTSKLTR chain 2: VVGGEDAKPGQFPWQVVLNGKVDAFCGGSIVNEKWIVTAAHCVETGVKITVVAGEHNIEETEHTEQNRSVIRIIPHHNYNAAINKYNHDIALLELDEPLVLNSYVTPICIADKEYTNIFLKFGSGYVSGWGRVFHKGYSALVLQYLRVPLVDRATCLRSTKFRIYNNMFCAGFHEGGRDSCQGDSGGPHVTEVEGTSFLTGIISWGEECAMKGKYGIYTKVSRYVNWIKNKTKLT

>  <kcat/KM / M⁻¹ s⁻¹>
3.1e+08

$$$$
>  <Protein>
FIXa-K247N/N249S/T343R/R403E/E410N (protein) chain 1: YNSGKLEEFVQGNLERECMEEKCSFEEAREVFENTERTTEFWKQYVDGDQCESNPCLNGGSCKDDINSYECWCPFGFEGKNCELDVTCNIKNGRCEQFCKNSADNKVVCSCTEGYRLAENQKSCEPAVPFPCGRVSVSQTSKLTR chain 2: VVGGEDAKPGQFPWQVVLNGKVDAFCGGSIVNEKWIVTAAHCVETGVKITVVAGEHNIEETEHTEQNRSVIRIIPHHNYNAAINKYNHDIALLELDEPLVLNSYVTPICIADKEYTNIFLKFGSGYVSGWGRVFHKGRSALVLQYLRVPLVDRATCLRSTKFRIYNNMFCAGFHEGGRDSCQGDSGGPHVTEVEGTSFLTGIISWGEECAMKGKYGIYTKVSEYVNWIKNKTKLT

>  <kcat/KM / M⁻¹ s⁻¹>
1.3e+08

$$$$
>  <Protein>
FIXa-Y155F/R338E/T343R/E410N (protein) chain 1: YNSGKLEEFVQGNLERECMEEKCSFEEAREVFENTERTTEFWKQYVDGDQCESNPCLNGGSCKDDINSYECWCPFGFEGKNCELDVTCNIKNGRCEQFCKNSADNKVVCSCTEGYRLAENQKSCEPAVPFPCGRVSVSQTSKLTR chain 2: VVGGEDAKPGQFPWQVVLNGKVDAFCGGSIVNEKWIVTAAHCVETGVKITVVAGEHNIEETEHTEQKRNVIRIIPHHNYNAAINKYNHDIALLELDEPLVLNSYVTPICIADKEYTNIFLKFGSGYVSGWGRVFHKGRSALVLQYLRVPLVDRATCLESTKFRIYNNMFCAGFHEGGRDSCQGDSGGPHVTEVEGTSFLTGIISWGEECAMKGKYGIYTKVSRYVNWIKNKTKLT

>  <kcat/KM / M⁻¹ s⁻¹>
3.5e+08

$$$$
>  <Protein>
FIXa-R318Y/R338E/T343R/R403E/E410N (protein) chain 1: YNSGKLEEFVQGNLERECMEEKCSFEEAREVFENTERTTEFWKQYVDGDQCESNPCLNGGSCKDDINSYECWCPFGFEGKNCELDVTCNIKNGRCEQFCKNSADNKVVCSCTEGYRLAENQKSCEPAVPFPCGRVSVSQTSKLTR chain 2: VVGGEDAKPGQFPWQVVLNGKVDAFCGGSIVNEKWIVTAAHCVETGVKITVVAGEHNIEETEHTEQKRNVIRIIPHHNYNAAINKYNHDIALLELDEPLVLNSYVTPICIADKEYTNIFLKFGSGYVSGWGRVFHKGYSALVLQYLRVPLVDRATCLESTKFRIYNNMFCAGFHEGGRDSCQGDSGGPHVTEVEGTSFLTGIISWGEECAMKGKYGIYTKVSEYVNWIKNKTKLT

>  <kcat/KM / M⁻¹ s⁻¹>
5.4e+08

$$$$
>  <Protein>
FIXa-Y155F/K247N/N249S/R338E/T343R/E410N (protein) chain 1: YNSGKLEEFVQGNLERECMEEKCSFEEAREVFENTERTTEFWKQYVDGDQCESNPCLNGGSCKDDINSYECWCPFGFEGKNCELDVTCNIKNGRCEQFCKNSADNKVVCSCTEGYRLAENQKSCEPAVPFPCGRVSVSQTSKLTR chain 2: VVGGEDAKPGQFPWQVVLNGKVDAFCGGSIVNEKWIVTAAHCVETGVKITVVAGEHNIEETEHTEQNRSVIRIIPHHNYNAAINKYNHDIALLELDEPLVLNSYVTPICIADKEYTNIFLKFGSGYVSGWGRVFHKGRSALVLQYLRVPLVDRATCLESTKFRIYNNMFCAGFHEGGRDSCQGDSGGPHVTEVEGTSFLTGIISWGEECAMKGKYGIYTKVSRYVNWIKNKTKLT

>  <kcat/KM / M⁻¹ s⁻¹>
1.8e+08

$$$$
>  <Protein>
FIXa-K247N/N249S/N260S/R318Y/R338E/R403E/E410N (protein) chain 1: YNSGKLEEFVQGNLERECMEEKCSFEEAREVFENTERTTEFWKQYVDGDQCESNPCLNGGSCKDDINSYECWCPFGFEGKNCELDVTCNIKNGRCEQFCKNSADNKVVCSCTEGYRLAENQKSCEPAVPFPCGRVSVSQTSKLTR chain 2: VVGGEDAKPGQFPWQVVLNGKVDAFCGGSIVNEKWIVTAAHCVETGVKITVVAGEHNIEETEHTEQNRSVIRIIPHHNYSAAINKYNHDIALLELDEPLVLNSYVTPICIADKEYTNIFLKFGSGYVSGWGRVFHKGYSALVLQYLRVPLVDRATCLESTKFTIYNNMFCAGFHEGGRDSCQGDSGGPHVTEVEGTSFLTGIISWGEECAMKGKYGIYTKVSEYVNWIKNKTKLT

>  <kcat/KM / M⁻¹ s⁻¹>
9.7e+07

$$$$
>  <Protein>
FIXa-K247N/N249S/R318Y/R338E/T343R (protein) chain 1: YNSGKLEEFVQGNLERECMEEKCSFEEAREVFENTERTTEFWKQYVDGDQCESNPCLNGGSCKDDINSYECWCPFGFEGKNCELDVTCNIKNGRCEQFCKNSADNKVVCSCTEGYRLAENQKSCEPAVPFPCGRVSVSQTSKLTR chain 2: VVGGEDAKPGQFPWQVVLNGKVDAFCGGSIVNEKWIVTAAHCVETGVKITVVAGEHNIEETEHTEQNRSVIRIIPHHNYNAAINKYNHDIALLELDEPLVLNSYVTPICIADKEYTNIFLKFGSGYVSGWGRVFHKGYSALVLQYLRVPLVDRATCLESTKFRIYNNMFCAGFHEGGRDSCQGDSGGPHVTEVEGTSFLTGIISWGEECAMKGKYGIYTKVSRYVNWIKEKTKLT

>  <kcat/KM / M⁻¹ s⁻¹>
3.9e+08

$$$$
